Assay: RP, Agilent ZORBAX Eclipse Plus C18, 150 × 2.1 mm, 3.5 µm, 40 °C, 0.3 mL/min, estimated dead time 1.1 min; A: water + 0.1% formic acid; B: acetonitrile + 0.1% formic acid; gradient (min/%B) 0/2 1/2 2/20 16.5/98 22/98
Conditions: stereoisomer not certain
Outcome measure: LC retention time (min)

Compound | Readout units | LC retention time
CC[N+](CC)(CC([O-])=Nc1c(C)cccc1C)Cc1ccccc1 | min | 7.58

a. NC(=O)N1c2ccccc2CCc2ccccc21
b. CCCCCCCCCCCCCCCC(=O)OCC(O)COP(=O)([O-])OCC[N+](C)(C)C (stereo unspecified)
c. c1cncc(-c2nc3ccccc3[nH]2)c1
Rank entries according to their LC retention time, from the largest number down. Labels, ranked as asked. b, a, c

a. COCC(C)N(C(=O)CS(=O)(=O)O)c1c(C)csc1C (stereo unspecified)
b. Oc1ccc(Oc2ccccc2)cc1
c. CNCc1ccc(CSCCNC(=C[N+](=O)[O-])NC)o1
d. CCCCCCCCOc1ccc(C(=O)c2ccccc2)c(O)c1
Rank entries according to their LC retention time, from the largest number down. Labels, ranked as asked. d, b, a, c
(d: 19 min, b: 11.1 min, a: 7.04 min, c: 4.77 min)

a. CCCCCCCCCCCC[N+](C)(C)C
b. CCN(CC)CC(=O)Nc1c(C)cccc1C
Which value of LC retention time is greater, the one for a or the one for b ? Respond using the label that marks the chosen record. a

* * *

Test: RP, Agilent ZORBAX Eclipse Plus C18, 150 × 2.1 mm, 3.5 µm, 40 °C, 0.3 mL/min, estimated dead time 1.1 min; A: water + 0.1% formic acid; B: acetonitrile + 0.1% formic acid; gradient (min/%B) 0/2 1/2 2/20 16.5/98 22/98
Conditions: stereoisomer not certain
Outcome measure: LC retention time (min)

Molecule | Outcome measure | Recorded measurement
COC(=O)C1C2CC3c4[nH]c5cc(OC)ccc5c4CCN3CC2CC(OC(=O)c2cc(OC)c(OC)c(OC)c2)C1OC (stereo unspecified) | LC retention time | 8.6
CC(C(=O)O)c1ccc(CC(C)(C)O)cc1 (stereo unspecified) | LC retention time | 8.21
CC(C)CC(CN)CC(=O)O (stereo unspecified) | LC retention time | 5.17
CC1CC2C(C(O)CC3(C)C2CCC3(O)C(=O)CO)C2(C)C=CC(=O)C=C12 (stereo unspecified) | LC retention time | 9.02
CCCCCCCCCCC(C(=O)OCC)[N+](C)(C)Cc1ccccc1 (stereo unspecified) | LC retention time | 11.7
CSc1ccc(O)cc1C | LC retention time | 9.8

* * *

Test: RP, Agilent ZORBAX Eclipse Plus C18, 150 × 2.1 mm, 3.5 µm, 40 °C, 0.3 mL/min, estimated dead time 1.1 min; A: water + 0.1% formic acid; B: acetonitrile + 0.1% formic acid; gradient (min/%B) 0/2 1/2 2/20 16.5/98 22/98
Conditions: stereoisomer not certain
Outcome measure: LC retention time (min)

Molecule | Outcome measure | Recorded measurement
N=C(N)c1ccc(OCCCCCCOc2ccc(C(=N)N)cc2)cc1 | LC retention time | 5.92
CCNC(=O)C1CC(C)CCC1C(C)C (stereo not given) | LC retention time | 11.8
Nc1ccc(O)c([N+](=O)[O-])c1 | LC retention time | 4.69
CC1(C)CC(=O)CC(C)(C)N1 | LC retention time | 2.82
CC[N+](CC)(CC)CC | LC retention time | 2.28
C=Cc1ccc(C[N+](C)(C)C)cc1 | LC retention time | 5.4

a. CCNC(=O)c1cccc(C)c1
b. CCNCC(=O)Nc1c(C)cccc1C
Identify the entry with the smaller LC retention time: a or b . Respond using the label that marks the chosen record. b

* * *

Test: RP, Agilent ZORBAX Eclipse Plus C18, 150 × 2.1 mm, 3.5 µm, 40 °C, 0.3 mL/min, estimated dead time 1.1 min; A: water + 0.1% formic acid; B: acetonitrile + 0.1% formic acid; gradient (min/%B) 0/2 1/2 2/20 16.5/98 22/98
Conditions: stereoisomer not certain
Outcome measure: LC retention time (min)

Compound | LC retention time (min)
COc1ncnc(NS(=O)(=O)c2ccc(N)cc2)c1OC | 7.08

1. COC(=O)Nc1cccc(N)c1
2. CCC(C)C(N)C(=O)O (configuration not stated)
Identify the entry with the smaller LC retention time: 1 or 2 . Respond using the label that marks the chosen record. 2
(2: 2.36 min, 1: 4.29 min)

* * *

Assay: RP, Agilent ZORBAX Eclipse Plus C18, 150 × 2.1 mm, 3.5 µm, 40 °C, 0.3 mL/min, estimated dead time 1.1 min; A: water + 0.1% formic acid; B: acetonitrile + 0.1% formic acid; gradient (min/%B) 0/2 1/2 2/20 16.5/98 22/98
Details: stereoisomer not certain
Outcome measure: LC retention time (min)

Molecule | LC retention time, min
COc1ccc2c(c1)CCC1C2CCC2(C)C(=O)CCC12 (stereo unspecified) | 10.5
COc1ccc(Cc2cnc(N)nc2N)cc1OC | 4.97
CC(C)(c1ccc(O)c([N+](=O)[O-])c1)c1ccc(O)c([N+](=O)[O-])c1 | 13.8
CCN(CC)C(=O)c1cccc(C)c1 | 10.4
COC(=O)C1=C(C)NC(C)=C(C(=O)OC)C1c1ccccc1[N+](=O)[O-] | 10.9

I. CCCC[P+](c1ccccc1)(c1ccccc1)c1ccccc1
II. CCC(CC)OC1C=C(C(=O)O)CC(N)C1NC(C)=O (stereo unspecified)
Identify the entry with the smaller LC retention time: I or II . Respond using the label that marks the chosen record. II

I. NC(=O)N1c2ccccc2C=Cc2cc(O)ccc21
II. O=C(Nc1ccccc1)Nc1ccccc1
Identify the entry with the smaller LC retention time: I or II . Respond using the label that marks the chosen record. I

1. CCOC(=O)C(C)[P+](c1ccccc1)(c1ccccc1)c1ccccc1 (stereo unspecified)
2. CN1C=CN(Cc2ccccc2)C1
3. O=c1[nH]c(=O)c2[nH]cnc2[nH]1
4. c1ccc2sc(SSN3CCOCC3)nc2c1
Rank entries according to their LC retention time, from the largest number down. Labels, ranked as asked. 4, 1, 2, 3

* * *

Experiment: RP, Agilent ZORBAX Eclipse Plus C18, 150 × 2.1 mm, 3.5 µm, 40 °C, 0.3 mL/min, estimated dead time 1.1 min; A: water + 0.1% formic acid; B: acetonitrile + 0.1% formic acid; gradient (min/%B) 0/2 1/2 2/20 16.5/98 22/98
Settings: stereoisomer not certain
Outcome measure: LC retention time (min)

A. CN(C)c1ccc(C(c2ccccc2)c2ccc(N(C)C)cc2)cc1
B. Cc1cc(N)no1
Which value of LC retention time is greater, the one for A or the one for B ? Respond using the label that marks the chosen record. A

A. CN(C)CCC=C1c2ccccc2COc2ccccc21
B. CN(C)c1nc2c(ncn2C2OC(CO)C(O)C2O)c(=O)[nH]1 (stereo unspecified)
Which value of LC retention time is greater, the one for A or the one for B ? Respond using the label that marks the chosen record. A
(A: 7.45 min, B: 4.57 min)

* * *

Assay: RP, Agilent ZORBAX Eclipse Plus C18, 150 × 2.1 mm, 3.5 µm, 40 °C, 0.3 mL/min, estimated dead time 1.1 min; A: water + 0.1% formic acid; B: acetonitrile + 0.1% formic acid; gradient (min/%B) 0/2 1/2 2/20 16.5/98 22/98
Details: stereoisomer not certain
Outcome measure: LC retention time (min)

Compound | Outcome measure | Recorded measurement
C[N+](C)([O-])CCOC(c1ccccc1)c1ccccc1 | LC retention time | 8.07
Cc1ccc(-c2nc3ccccc3[nH]2)cc1 | LC retention time | 6.06
CCN1CCCC1CNC(=O)c1cc(S(=O)(=O)CC)c(N)cc1O (stereo unspecified) | LC retention time | 5.62

P. Nc1ccc(C(=O)O)c(O)c1
Q. COC(=O)Nc1nc2ccc(C(=O)c3ccccc3)cc2[nH]1
R. CC(C)(C)CC(C)(C)c1ccc(O)c(-n2nc3ccccc3n2)c1
Rank entries according to their LC retention time, from the largest number down. Labels, ranked as asked. R, Q, P

* * *

Assay: RP, Agilent ZORBAX Eclipse Plus C18, 150 × 2.1 mm, 3.5 µm, 40 °C, 0.3 mL/min, estimated dead time 1.1 min; A: water + 0.1% formic acid; B: acetonitrile + 0.1% formic acid; gradient (min/%B) 0/2 1/2 2/20 16.5/98 22/98
Details: stereoisomer not certain
Outcome measure: LC retention time (min)

The cases that follow already have their LC retention time on record.
Compound | LC retention time / min
CCCOP(=O)(OCCC)OCCC | 10.9
Nc1nc(N)c2nc(-c3ccccc3)c(N)nc2n1 | 5.2
c1ccc2sc(N3CCOCC3)nc2c1 | 9.36
O=C(CCc1ccc(O)cc1)c1c(O)cc(O)cc1O | 8.77
CCCCCCCC[P+](CCCCCCCC)(CCCCCCCC)CCCCCCCC | 16.4
Cc1cc(NS(=O)(=O)c2ccc(N)cc2)no1 | 7.25
CSc1ncnc2c1ncn2C1OC(CO)C(O)C1O (stereo not given) | 5.67
O=C1CC2(CCCCC2)C(=O)N1 | 7.4
CC(NC(CCc1ccccc1)C(=O)O)C(=O)C1CCCN1C(=O)O (stereo not given) | 5.84
Oc1cccc2n[nH]nc12 | 5.34

A. CC(C)C(=O)c1ccc(C(C)C(=O)O)cc1 (stereo not given)
B. CC(C)NCC(O)COc1ccc(C(O)C(N)=O)cc1 (stereo not given)
Which value of LC retention time is greater, the one for A or the one for B ? Respond using the label that marks the chosen record. A
(A: 10.2 min, B: 3.21 min)

A. CCOC(=O)C(C#N)=C(c1ccccc1)c1ccccc1
B. CCCCCCN1C=CN(C)C1
C. CC(C)C(NC(=O)OC(C)(C)C)C(=O)O (stereo not given)
Rank entries according to their LC retention time, from the largest number down. Labels, ranked as asked. A, C, B

I. CCCCCCCCCCCCCCCCCCCC[N+](C)(C)C
II. CCOc1ccc(NC(C)=O)cc1
III. Cc1ncc([N+](=O)[O-])n1CCO
Rank entries according to their LC retention time, from the largest number down. Labels, ranked as asked. I, II, III
(I: 15.7 min, II: 7.62 min, III: 4.81 min)
